Catalogue of inhibition values
Assay: growth inhibition, single agent and combos, cell-based, chromothripsis tumors, cisplatin or BGB combos (AID 1671450);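 further: cells exposed to compound for four days; 0% = vehicle DMSO and 100% = cell killing by high DMSO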
Conditions: HDN33 neuroblastoma cells, measured here: with BGB IC20 combination, at 0.5 µM, stronger effect = higher value
Result type: inhibition (%)

> print(dat)
                                   molecule  result.type  unit.info  measured.number
1  O=C(O)[C@H](Cc1c[nH]c2ccccc12)N1C(=O)c2ccccc2C1=O   inhibition          %            -35.8
2             Cc1ccc2nc(NCCN)c3ncc(C)n3c2c1   inhibition          %             -7.6
3  Nc1ncnc2c1c(-c1cnc3[nH]ccc3c1)nn2C1CCCC1   inhibition          %             27.9
4  NC1CCC(N[C@@H]2C[C@H]2c2ccccc2)CC1 (stereo not given in full)   inhibition          %            -15.4
5  Nc1ccc(-c2ccc3ncc4ccc(=O)n(-c5cccc(C(F)(F)F)c5)c4c3c2)cn1   inhibition          %             14.7

====

Some compounds, each annotated with its measured cell count.
Test: viability loss with induced miR-34 in A549 – imaging, A549 dox-inducible miR-34, nuclei and caspase counts, primary screen (AID 1347080)
Settings: A549 miR-34 inducible, Hoechst nuclei count, 48 h; measured here: total cells with miR-34 induction; stronger effect = lower value

Compound	cell count
COc1cc2nccc(Oc3ccc(NC(=O)Nc4cc(C)on4)c(Cl)c3)c2cc1OC	2720
CCC(C)[C@H]1O[C@]2(C=C[C@@H]1C)C[C@@H]1C[C@@H](C/C=C(\C)[C@@H](OC3C[C@H](OC)C(O[C@H]4C[C@H](OC)[C@@H](NC(C)=O)[C@H](C)O4)[C@H](C)O3)[C@@H](C)/C=C/C=C3\CO[C@@H]4[C@H](O)C(C)=C[C@@H](C(=O)O1)[C@]34O)O2 (stereo not given in full)	4370
O=C(Nc1cccc2cccnc12)c1ccc(N2C(=O)[C@@H]3[C@H](C2=O)[C@@H]2C=C[C@H]3C2)cc1	6560
COc1cc(Nc2ncc3c(n2)-c2ccc(Cl)cc2C(c2c(F)cccc2OC)=NC3)ccc1C(=O)O	1850
O=C(O)CCC/C=C\C[C@H]1[C@@H](/C=C/[C@@H](O)CCc2ccccc2)[C@H](O)C[C@@H]1O	5490
CCCCCCOC(=O)[C@@]1(O)CC2OC1(C)n1c3ccccc3c3c4c(c5c6ccccc6n2c5c31)C(=O)NC4 (stereo not given in full)	4880
O=C(Nc1ccccc1)N[C@H]1C[C@H](C(=O)O)Nc2cc(Cl)cc(Cl)c21	8670
O=C(O)CCCCCC[C@H]1C(=O)NC(=O)N1CCC(O)C1CCCCC1 (stereo not given in full)	6150
CNC(=O)CN1CCC(Oc2cc3c(Nc4cccc(Cl)c4F)ncnc3cc2OC)CC1	5230
N[C@@H](CSS(=O)(=O)O)C(=O)O	8240
CCCCCCCC/C=C\CCCCCCCC(=O)NCC	6050
CCCCCCCCCCCC(=O)c1nc2ncccc2o1	5110
CC1COC2(CCN(c3nc(=O)c4cc(C(F)(F)F)cc([N+](=O)[O-])c4s3)CC2)O1 (stereo not given)	6990
c1cc(-c2cnn3cc(-c4ccc(N5CCNCC5)cc4)cnc23)c2cccnc2c1	216
CCCCC[C@H](O)/C=C/[C@H]1[C@H](O)CC(=O)[C@@H]1CC(=O)CCCCC(=O)O	6410
COc1cc(COc2cc(N)c(Cl)cc2C(=O)CCC2CCN(CCNS(C)(=O)=O)CC2)cc(OC)c1	3930
CC(C(=O)Nc1cccc(N=Cc2c(O)ccc3ccccc23)c1)c1ccccc1 (stereo not given)	5970
CCCCCCCCCCOc1ccc(OCC(=O)Cn2cc(C(=O)OC)c3cc(C(=O)O)ccc32)cc1	6240
CCCCC[C@H](O)/C=C/[C@@H]1[C@@H](C/C=C\CCCCOC)[C@@H](O)C[C@H]1O	5300
CCCCCCCCNC(=O)Cc1c(C)n(C(=O)c2ccc(Cl)cc2)c2ccc(OC)cc12	5650
Cc1coc2c1C(=O)C(=O)c1c-2ccc2c(C)cccc12	7470
Cc1ccc(NC(=O)C(C)C)cc1C1CCN(Cc2ccc(Oc3ccc(F)c(F)c3)cc2)CC1	1330
CCCCCCCCCCCCCCCC(=O)NCCS(=O)(=O)O	6370
CC(C)[C@H](C(=O)Nc1ccc(C(=O)NO)cc1)c1ccccc1	1610
O=C(O)CCC/C=C\C[C@@H]1[C@@H](/C=C/[C@H](O)COc2cccc(C(F)(F)F)c2)[C@H](O)C[C@@H]1O	6230
